- Organism: Homo sapiens
- Assay Remarks: Selectivity for human partial length TAF1 bromodomain 2 (D1521 to D1656 residues) expressed in bacterial expression system over human partial length BRD4 BD1 (N44 to E168 residues) expressed in bacterial expression system by BROMOscan analysis
Metric: Selectivity ratio

P = Cc1cc2c(C3=CCOCC3)cnc(NC3CCN(C(=O)CCN)CC3)c2[nH]c1=O
Q = Cc1cc2c(C3=CCOCC3)cnc(NC3CCN(CCCN)CC3)c2[nH]c1=O
R = Cc1cc2c(C3=CCOCC3)cnc(NC3CCN(C(=O)C(F)CN)CC3)c2[nH]c1=O (stereo unspecified)
Inquiry: Please give the order of these compounds when sorted by Selectivity ratio, largest value leading. Give the labels in the order specified.
Reply text: Q, R, P

====

- Test System: Chromatin remodeling regulator CECR2 (Homo sapiens, UniProt Q9BXF3)
- Sequence (Q9BXF3 whole entry, the tested form may be a part): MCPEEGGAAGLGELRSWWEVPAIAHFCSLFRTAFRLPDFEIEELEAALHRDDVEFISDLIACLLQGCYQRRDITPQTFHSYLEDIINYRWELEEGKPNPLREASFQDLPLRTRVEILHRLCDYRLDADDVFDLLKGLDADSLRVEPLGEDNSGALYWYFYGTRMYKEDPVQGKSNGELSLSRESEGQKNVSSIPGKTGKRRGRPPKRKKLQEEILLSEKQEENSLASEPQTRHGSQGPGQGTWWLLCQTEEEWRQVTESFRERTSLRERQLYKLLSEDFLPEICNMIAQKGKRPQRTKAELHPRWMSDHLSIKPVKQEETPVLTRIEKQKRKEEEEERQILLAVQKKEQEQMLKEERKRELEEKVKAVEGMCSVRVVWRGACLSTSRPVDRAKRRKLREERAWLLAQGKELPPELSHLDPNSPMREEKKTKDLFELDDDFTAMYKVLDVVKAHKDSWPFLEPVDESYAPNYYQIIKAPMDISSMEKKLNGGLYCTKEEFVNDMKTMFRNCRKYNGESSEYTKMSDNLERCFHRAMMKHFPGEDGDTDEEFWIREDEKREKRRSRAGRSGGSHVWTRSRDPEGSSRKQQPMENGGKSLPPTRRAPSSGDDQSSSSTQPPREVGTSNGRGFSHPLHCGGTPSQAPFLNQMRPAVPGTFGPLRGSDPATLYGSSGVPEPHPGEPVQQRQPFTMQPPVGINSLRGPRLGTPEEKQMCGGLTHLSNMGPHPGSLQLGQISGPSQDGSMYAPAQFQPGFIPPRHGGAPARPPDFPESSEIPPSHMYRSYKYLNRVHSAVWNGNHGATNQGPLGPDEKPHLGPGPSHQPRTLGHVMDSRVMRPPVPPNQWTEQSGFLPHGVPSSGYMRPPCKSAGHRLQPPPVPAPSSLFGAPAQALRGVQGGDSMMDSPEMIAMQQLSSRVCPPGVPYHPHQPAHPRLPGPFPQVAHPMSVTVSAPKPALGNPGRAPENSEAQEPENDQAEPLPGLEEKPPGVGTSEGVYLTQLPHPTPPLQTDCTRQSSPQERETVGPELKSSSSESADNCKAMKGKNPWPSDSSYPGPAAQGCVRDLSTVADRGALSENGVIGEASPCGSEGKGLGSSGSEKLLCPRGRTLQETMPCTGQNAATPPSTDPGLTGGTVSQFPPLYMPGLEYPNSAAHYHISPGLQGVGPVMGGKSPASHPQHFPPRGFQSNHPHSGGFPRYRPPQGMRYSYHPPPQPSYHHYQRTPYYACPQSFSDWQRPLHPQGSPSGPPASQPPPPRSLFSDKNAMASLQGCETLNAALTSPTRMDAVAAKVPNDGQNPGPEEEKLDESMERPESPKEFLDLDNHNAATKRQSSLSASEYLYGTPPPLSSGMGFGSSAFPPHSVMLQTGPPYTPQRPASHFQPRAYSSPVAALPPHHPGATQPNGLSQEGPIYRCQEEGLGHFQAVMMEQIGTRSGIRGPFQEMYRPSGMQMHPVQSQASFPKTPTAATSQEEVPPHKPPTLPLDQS
- Assay Remarks: Inhibition of human partial length CECR2 (P423 to D543 residues) expressed in bacterial expression system by BROMOscan assay
Metric: Ki (µM)
Your answer should be a plain number; it is taken to be in µM.

Inquiry: Look up Ki with Chromatin remodeling regulator CECR2 (Homo sapiens, UniProt Q9BXF3) for this molecule: `Cc1cc2c(C3=CCOCC3)cnc(NC3CCN(C(=O)C(F)(F)CN)CC3)c2[nH]c1=O`
Reply text: 1

====

- Assay Remarks: Lipophilicity, logD of the compound at pH 7.4 by chromatographic method
- Type: physicochemical
- Reported Conditions: buffer
Metric: chromatographic logD

Cc1cc2c(-c3cncc(COC(N)=O)c3)cnc(NC3CCNCC3)c2[nH]c1=O ... 0.3
Cc1cncc(-c2cnc(NC3CCN(CCN)CC3)c3[nH]c(=O)c(C)cc23)c1 ... 1.6
Cc1cncc(-c2cnc(NC3CCN(CCO)CC3)c3[nH]c(=O)c(C)cc23)c1 ... 1.1
Cc1cc2c(C3CCCCC3)cnc(NC3CCN(CCCN)CC3)c2[nH]c1=O ... 3.1
Cc1cncc(-c2cnc(NC3CCN(CCCN)CC3)c3[nH]c(=O)c(C)cc23)c1 ... 1.2

P = Cc1cc2c(C3CCOCC3)cnc(NC3CCN(CCCN)CC3)c2[nH]c1=O
Q = Cc1cc2c(C3=CCOCC3)cnc(NC3CCN(C(=O)C(F)(F)CN)CC3)c2[nH]c1=O
R = Cc1cc2c(C3=CCOCC3)cnc(NC3CCN(C(=O)C(F)CN)CC3)c2[nH]c1=O (stereo not drawn)
Inquiry: Rank the 3 compounds: largest chromatographic logD first, smallest last. Thanks in advance for listing the labels in the requested order.
Reply text: Q, R, P

====

- Assay Remarks: Solubility of the compound by CAD method
- Type: physicochemical
Metric: solubility (µg/mL)

C=CCCc1cc2c(C3=CCOCC3)cnc(NC3CCN(C(=O)C(F)(F)CN)CC3)c2[nH]c1=O ... 28
Cc1cc2c(C3=CCOCC3)cnc(NC3CCN(C(=O)C(F)(F)CN)CC3)c2[nH]c1=O ... 24

====

- Test System: Bromodomain-containing protein 4 (Homo sapiens)
- Assay Remarks: Inhibition of human partial length BRD4 BD2 (K333 to E460 residues) expressed in bacterial expression system by BROMOscan assay
Metric: pKi
Would you please state pKi, meaning minus log10 of the concentration in mol/L, as a bare number?

Inquiry: Endpoint output: pKi of `Cc1cc2c(C3=CCOCC3)cnc(NC3CCN(C(=O)C(F)(F)CN)CC3)c2[nH]c1=O` . Value?
Reply text: 6.10

====

- Test System: Transcription initiation factor TFIID subunit 1 (Homo sapiens, UniProt P21675)
- Sequence (P21675 whole entry, the tested form may be a part): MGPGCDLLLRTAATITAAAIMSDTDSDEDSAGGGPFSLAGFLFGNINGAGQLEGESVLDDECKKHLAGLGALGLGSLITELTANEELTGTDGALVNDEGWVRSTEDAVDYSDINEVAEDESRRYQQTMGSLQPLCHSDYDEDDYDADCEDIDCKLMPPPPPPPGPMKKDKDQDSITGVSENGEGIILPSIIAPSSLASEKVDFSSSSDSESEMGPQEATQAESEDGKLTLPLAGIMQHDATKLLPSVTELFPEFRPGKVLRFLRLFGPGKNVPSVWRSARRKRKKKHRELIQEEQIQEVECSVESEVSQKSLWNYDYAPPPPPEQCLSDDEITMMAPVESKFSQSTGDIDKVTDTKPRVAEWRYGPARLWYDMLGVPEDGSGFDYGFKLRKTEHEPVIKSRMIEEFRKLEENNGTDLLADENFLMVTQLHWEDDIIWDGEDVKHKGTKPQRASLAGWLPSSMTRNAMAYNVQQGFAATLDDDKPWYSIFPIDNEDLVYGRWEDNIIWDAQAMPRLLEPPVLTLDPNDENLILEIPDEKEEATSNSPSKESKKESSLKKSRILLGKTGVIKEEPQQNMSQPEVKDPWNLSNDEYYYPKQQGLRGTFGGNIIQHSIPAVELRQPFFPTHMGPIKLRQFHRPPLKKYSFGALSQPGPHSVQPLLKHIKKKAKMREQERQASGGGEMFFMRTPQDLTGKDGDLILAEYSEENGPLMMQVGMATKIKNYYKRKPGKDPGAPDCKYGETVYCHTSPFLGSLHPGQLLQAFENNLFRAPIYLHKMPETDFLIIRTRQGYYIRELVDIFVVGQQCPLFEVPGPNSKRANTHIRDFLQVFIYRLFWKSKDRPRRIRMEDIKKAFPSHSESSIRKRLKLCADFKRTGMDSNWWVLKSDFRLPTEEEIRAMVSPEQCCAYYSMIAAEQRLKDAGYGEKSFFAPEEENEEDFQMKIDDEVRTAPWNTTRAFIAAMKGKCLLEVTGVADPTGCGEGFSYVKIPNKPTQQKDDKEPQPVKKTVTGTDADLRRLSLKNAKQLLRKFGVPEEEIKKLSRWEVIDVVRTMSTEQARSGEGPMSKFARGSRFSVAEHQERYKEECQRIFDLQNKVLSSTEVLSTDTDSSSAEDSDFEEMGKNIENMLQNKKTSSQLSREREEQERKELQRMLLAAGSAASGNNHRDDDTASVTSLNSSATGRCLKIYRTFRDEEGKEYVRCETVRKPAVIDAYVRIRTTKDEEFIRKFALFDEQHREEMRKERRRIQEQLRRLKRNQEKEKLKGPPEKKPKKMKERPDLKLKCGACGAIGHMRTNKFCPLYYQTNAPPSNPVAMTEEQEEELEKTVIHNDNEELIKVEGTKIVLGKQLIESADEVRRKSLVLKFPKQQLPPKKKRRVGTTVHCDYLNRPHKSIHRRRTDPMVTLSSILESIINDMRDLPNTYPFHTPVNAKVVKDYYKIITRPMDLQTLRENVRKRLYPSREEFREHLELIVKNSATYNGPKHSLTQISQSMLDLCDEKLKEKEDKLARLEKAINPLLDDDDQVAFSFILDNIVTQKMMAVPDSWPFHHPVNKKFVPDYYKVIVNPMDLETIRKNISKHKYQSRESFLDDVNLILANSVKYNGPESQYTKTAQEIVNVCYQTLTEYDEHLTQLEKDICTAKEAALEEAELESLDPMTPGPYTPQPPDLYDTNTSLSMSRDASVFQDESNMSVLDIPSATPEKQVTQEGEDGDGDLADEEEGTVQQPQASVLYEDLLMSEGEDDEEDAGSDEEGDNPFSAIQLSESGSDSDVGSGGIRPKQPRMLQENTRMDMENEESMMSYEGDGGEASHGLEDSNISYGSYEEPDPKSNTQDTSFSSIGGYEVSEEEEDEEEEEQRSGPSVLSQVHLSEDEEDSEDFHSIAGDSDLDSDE
- Assay Remarks: Inhibition of human partial length TAF1 bromodomain 2 (D1521 to D1656 residues) expressed in bacterial expression system by BROMOscan assay
pKi: −log10 of the molar value.
Metric: pKi

Illustrative cases are given below, each with its answer.
Cc1cc2c(C3=CCOCC3)cnc(NC3CCN(C(=O)CCN)CC3)c2[nH]c1=O ... 8.90
Cc1cc2c(C3=CCOCC3)cnc(NC3CCN(C(=O)C(F)(F)CN)CC3)c2[nH]c1=O ... 9.10

A = Cc1cc2c(C3=CCOCC3)cnc(NC3CCN(CCCN)CC3)c2[nH]c1=O
B = C=CCCc1cc2c(C3=CCOCC3)cnc(NC3CCN(C(=O)C(F)(F)CN)CC3)c2[nH]c1=O
C = Cc1cc2c(C3=CCOCC3)cnc(NC3CCN(CC(F)CN)CC3)c2[nH]c1=O (configuration not stated)
D = Cc1cc2c(C3=CCOCC3)cnc(NC3CCN(CC(F)(F)CN)CC3)c2[nH]c1=O
E = Cc1cc2c(C3=CCOCC3)cnc(NC3CCN(C(=O)C(F)CN)CC3)c2[nH]c1=O (configuration not stated)
Inquiry: Order the records so the highest pKi appears first and the lowest last. The labels, placed in the requested order, form the answer.
Reply text: E, A, C, D, B

====

- Test System: Bromodomain-containing protein 4 (Homo sapiens)
- Assay Remarks: Inhibition of BRD4 BD2 (unknown origin) measured by TR-FRET assay
Metric: pIC50
Notebook: values listed as pIC50 are -log10 of the concentration (mol/L).

Inquiry: What value of pIC50 has been recorded for this entry: `Cc1cc2c(C3=CCOCC3)cnc(NC3CCN(C(=O)C(F)(F)CN)CC3)c2[nH]c1=O`
Reply text: 5.30

====

Observed pIC50 for ATPase family AAA domain-containing protein 2 (Homo sapiens), reported per entry below.
pIC50: −log10 of the molar value.
Metric: pIC50

Cc1cc2c(C3CCOCC3)cnc(NC3CCN(CCCN)CC3)c2[nH]c1=O ... 4.90

P = Cc1cccc(-c2cnc(NC3CCN(CCCN)CC3)c3[nH]c(=O)c(C)cc23)c1
Q = Cc1cncc(-c2cnc(NC3CCN(CCO)CC3)c3[nH]c(=O)c(C)cc23)c1
Inquiry: // select label with min value of measured pIC50 from [ P , Q ] Choose, then provide that item's label.
Reply text: P

====

- Assay Remarks: Passive permeability of the compound across artificial membrane by AMP assay
- Assay type: ADME
- Reported Conditions: PAMPA; read-out: permeability
Metric: Papp (×10⁻⁶ cm/s)

A = Cc1cc2c(C3=CCOCC3)cnc(NC3CCN(CC(F)(F)CN)CC3)c2[nH]c1=O
B = Cc1cc2c(-c3cncc(CO)c3)cnc(NC3CCN(CCCN)CC3)c2[nH]c1=O
Inquiry: // select label with min value of measured Papp from [ A , B ] Pick one and reply with its label.
Reply text: B
(B: 0.8 ×10⁻⁶ cm/s, A: 22 ×10⁻⁶ cm/s)

====

compounds and their reported Ki
- Test System: Bromodomain-containing protein 4 (Homo sapiens, UniProt O60885)
- Assay Remarks: Inhibition of human partial length BRD4 BD1 (N44 to E168 residues) expressed in bacterial expression system by BROMOscan assay

A selection of reference data follows.
Cc1cc2c(C3=CCOCC3)cnc(NC3CCN(C(=O)C(F)(F)CN)CC3)c2[nH]c1=O ... > 5.01 µM
C=CCCc1cc2c(C3=CCOCC3)cnc(NC3CCN(C(=O)C(F)(F)CN)CC3)c2[nH]c1=O ... > 10 µM
Cc1cc2c(C3=CCOCC3)cnc(NC3CCN(CC(F)(F)CN)CC3)c2[nH]c1=O ... > 5.01 µM

Inquiry: Which Ki value belongs to Cc1cc2c(C3=CCOCC3)cnc(NC3CCN(CC(F)CN)CC3)c2[nH]c1=O (centres undefined) ?
Reply text: > 5.01 µM

====

- Assay Remarks: Solubility of compound by chemiluminscent nitrogen detection (CLND) method
- Type: physicochemical
Metric: solubility

Example results:
Cc1cc2c(C3=CCOCC3)cnc(NC3CCN(CCC(N)=O)CC3)c2[nH]c1=O ... ≥ 206 µg/mL
Cc1cncc(-c2cnc(NC3CCN(CCO)CC3)c3[nH]c(=O)c(C)cc23)c1 ... ≥ 176 µg/mL
Cc1cncc(-c2cnc(NC3CCNCC3)c3[nH]c(=O)c(C)cc23)c1 ... ≥ 72 µg/mL
Cc1cc2c(C3=CCOCC3)cnc(NC3CCN(C(=O)CCN)CC3)c2[nH]c1=O ... ≥ 386 µg/mL
Cc1cc2c(-c3cncc(COC(N)=O)c3)cnc(NC3CCNCC3)c2[nH]c1=O ... ≥ 144 µg/mL

Moving on to another molecule below.
Inquiry: Form field: reported solubility of Cc1cc2c(C3=CCOCC3)cnc(NC3CCN(C(=O)C(F)CN)CC3)c2[nH]c1=O (stereo unspecified)
Reply text: ≥ 201 µg/mL

====

- Assay Remarks: Passive permeability of the compound across artificial membrane by AMP assay
- Assay type: ADME
- Reported Conditions: PAMPA; read-out: permeability
Metric: Papp

Cc1cncc(-c2cnc(NC3CCNCC3)c3[nH]c(=O)c(C)cc23)c1 ... < 0.3 ×10⁻⁶ cm/s
Cc1cncc(-c2cnc(NC3CCN(CCN)CC3)c3[nH]c(=O)c(C)cc23)c1 ... < 0.3 ×10⁻⁶ cm/s
Cc1cc2c(C3=CCOCC3)cnc(NC3CCN(C(=O)C(F)CN)CC3)c2[nH]c1=O (centres undefined) ... < 0.65 ×10⁻⁶ cm/s
Cc1cc2c(-c3cncc(COC(N)=O)c3)cnc(NC3CCNCC3)c2[nH]c1=O ... < 0.3 ×10⁻⁶ cm/s
Cc1cncc(-c2cnc(NC3CCN(C)CC3)c3[nH]c(=O)c(C)cc23)c1 ... < 0.3 ×10⁻⁶ cm/s
Cc1cncc(-c2cnc(NC3CCN(CCCN)CC3)c3[nH]c(=O)c(C)cc23)c1 ... 1.1 ×10⁻⁶ cm/s

Inquiry: Find the recorded Papp belonging to Cc1cc2c(C3=CCOCC3)cnc(NC3CCN(CC(F)CN)CC3)c2[nH]c1=O (centres undefined) and report it.
Reply text: < 1 ×10⁻⁶ cm/s

Inquiry: Value lookup for Papp; key = `Cc1cc2c(C3=CCOCC3)cnc(NC3CCN(C(=O)CCN)CC3)c2[nH]c1=O`
Reply text: < 0.3 ×10⁻⁶ cm/s

Inquiry: Name the reported Papp value associated with the compound `Cc1cncc(-c2cnc(NC3CCN(CCO)CC3)c3[nH]c(=O)c(C)cc23)c1`
Reply text: < 0.3 ×10⁻⁶ cm/s
